The following compounds were reported with pKi values on Histamine H1 receptor (Homo sapiens) in different studies.
Sequence (P35367 whole entry): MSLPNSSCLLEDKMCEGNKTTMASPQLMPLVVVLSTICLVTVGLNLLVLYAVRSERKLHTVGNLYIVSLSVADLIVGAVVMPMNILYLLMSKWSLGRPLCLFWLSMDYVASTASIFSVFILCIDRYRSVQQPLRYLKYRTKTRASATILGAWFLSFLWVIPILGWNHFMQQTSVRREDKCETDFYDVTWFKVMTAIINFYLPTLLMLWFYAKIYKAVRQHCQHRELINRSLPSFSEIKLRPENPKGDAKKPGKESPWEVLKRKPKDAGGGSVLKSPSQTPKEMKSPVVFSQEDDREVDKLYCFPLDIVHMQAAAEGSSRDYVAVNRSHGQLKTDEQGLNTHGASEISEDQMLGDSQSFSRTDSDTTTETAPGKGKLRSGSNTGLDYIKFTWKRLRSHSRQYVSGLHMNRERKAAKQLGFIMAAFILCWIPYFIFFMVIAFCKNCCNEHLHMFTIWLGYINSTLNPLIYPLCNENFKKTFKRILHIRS
pKi: −log10 of the molar value.
observationType: pKi

Solved entries (count: 5):
>>> testvalue("O=C(CCCN1CCC(c2noc3cc(F)ccc23)CC1)c1cc2c3c(c1)CCN3C(=O)CC2")
6.20
>>> testvalue("CN1CCN(c2nc3c(c(N4CCN(C)CC4)n2)-c2ccccc2CC3)CC1")
5.93
>>> testvalue("CCCCCC(=O)c1ccc(OCCCN2CCN(S(=O)(=O)C(C)C)CC2)cc1")
4.95
>>> testvalue("CCCCCC(=O)c1ccc(OCCCN2CCN(C(=O)[C@H](N)CC(C)C)CC2)cc1")
4.84
>>> testvalue("CN1CCN(C2=Nc3ccccc3Nc3sc(CO)cc32)CC1")
8.22

(P) CN1CCN(c2cc(-c3ccccc3)nc(NCCc3ccccc3)n2)CC1
(Q) N[C@H](Cc1ccc(F)cc1)C(=O)N1CCN(CCCOc2ccc(C(=O)C3CC3)cc2)CC1
(R) C[C@H](C1=C(CCN(C)Cc2ncco2)Cc2ccccc21)c1cnccn1
INPUT: Could you please sort these 3 entries by pKi from high to low? Output spec: labels arranged per the requested ranking.
OUTPUT: R, P, Q

====

Endpoint summary: Ki, system: Histamine H1 receptor (Homo sapiens), multiple sources combined.
observationType: Ki (µM)

Before answering, review these 8 worked examples.
>>> testvalue("C[C@@H](C1=C(CCN(C)C)Cc2ccccc21)c1ccccn1")
0.0692
>>> testvalue("Cc1nc(N)sc1CCCN/C(N)=N/C(=O)NC(c1ccccc1)C(C)C (stereo not drawn)")
24.5
>>> testvalue("COc1ccc(CN(CCN[C@H]2CCN(C(=O)c3cc4ccccc4[nH]3)C2)c2ccccn2)cc1")
0.457
>>> testvalue("CC1NC(NCC(F)F)=Nc2ccc(Cl)c(Cl)c21 (stereo not drawn)")
0.0183
>>> testvalue("CCOC(=O)N1CCN(CCCOc2ccc(C(=O)C=C(C)C)cc2)CC1")
0.355
>>> testvalue("CCOC(=O)N1CCN(CCCOc2ccc(C(=O)C3CC3)cc2)CC1")
1.41
>>> testvalue("Cc1ccc(S(=O)(=O)N(C)C(=O)N2CCC(N3CCC(Oc4ccc(Cl)c(Cl)c4)CC3)CC2)cc1")
0.00251
>>> testvalue("CCCCCC(=O)c1ccc(OCCCN2CCN(Cc3nccs3)CC2)cc1")
0.0603

(A) O=C(c1cc2ccccc2[nH]1)N1CCN(CCN2CCC(Nc3nc4ccccc4n3Cc3ccc(F)cc3)CC2)CC1
(B) CCCCCC(=O)c1ccc(OCCCN2CCN(C(=O)[C@@H](CO)NC(=O)OC(C)(C)C)CC2)cc1
(C) O=C(NC1CCCC1)c1ccc(-c2ccc3c(c2)CCN(CCN2CCCC2)C3=O)cc1
INPUT: Please produce an ascending ranking of these molecules based on Ki. Could you list the labels in the order requested?
OUTPUT: A, C, B

(P) CN(C)C[C@H]1CC2c3ccccc3Oc3ccc(Cl)cc3[C@H]2O1 (stereo partly drawn)
(Q) O=C(NS(=O)(=O)c1ccccc1Cl)N1CCC(N2CCC(Oc3ccc(Cl)c(Cl)c3)CC2)CC1
INPUT: Of P and Q , whose reported Ki is numerically smaller? To answer, give the label that identifies your chosen option.
OUTPUT: P

====

# literature pull: Histamine H1 receptor (Homo sapiens) Ki
observationType: Ki (µM)

Guide cases for Ki, answers given:
>>> testvalue("CC(C)(C)C[C@@H](N)C(=O)N1CCN(CCCOc2ccc(C(=O)C3CC3)cc2)CC1")
10.2
>>> testvalue("c1ccc(Cc2ccccc2OCCCN2CCCCCC2)cc1")
0.02
>>> testvalue("CCCCCC(=O)c1ccc(OCCCN2CCN(C(=O)N3CCCC3)CC2)cc1")
1.05

(1) CCCCCC(=O)c1ccc(OCCCN2CCN(CCC)CC2)cc1
(2) CC1(C)CCCN(CCCOc2ccc(C3CCN(C(=O)c4ccc(CCC(=O)O)c5ccccc45)CC3)cc2)C1
INPUT: // compare measured Ki between 1 and 2 ; output the lower one Could you answer with the label of the item you picked?
OUTPUT: 2

(1) COc1ccc(CNc2cc(-c3ccccc3)nc(N3CCN(C)CC3)n2)cc1
(2) CN1CCN(CC2C[C@@H]3c4ccccc4Cc4ccccc4[C@H]3O2)CC1 (stereo not given in full)
(3) CCCCCC(=O)c1ccc(OCCCN2CCN(C(=O)[C@@H](N)Cc3ccncc3)CC2)cc1
(4) COc1c(OCCF)cccc1[C@H](O)C1CCN(CCc2ccc(F)cc2)CC1
INPUT: Sort the 4 molecules by Ki; largest first, smallest last. Enter labels, ranked according to the request.
OUTPUT: 1, 3, 4, 2
(1: 4.17 µM, 3: 2.29 µM, 4: 0.509 µM, 2: 0.003 µM)

(1) N[C@H](CCc1ccccc1)C(=O)N1CCN(CCCOc2ccc(C(=O)C3CC3)cc2)CC1
(2) CCOc1cc(CN2CCC(Nc3nc4cc(S(=O)(=O)CC)ccc4o3)CC2)cc(OC2CCOCC2)c1
INPUT: Select one. Lower Ki: 1 or 2 # respond with the chosen item's label
OUTPUT: 1
(1: 10 µM, 2: 38.4 µM)

(a) CN(C)C[C@H]1CC2c3ccccc3Oc3ccc(Br)cc3[C@H]2O1 (stereo not given in full)
(b) O=C(c1ccc(F)cc1)C1CCN(CC2C[C@@H]3c4ccccc4Cc4ccccc4[C@H]3O2)CC1 (stereo not given in full)
(c) CCOC(=O)N1CCN(CCCOc2ccc(C(=O)c3ccc(F)cc3)cc2)CC1
INPUT: List these items ordered by Ki, big to small. Labels, requested order.
OUTPUT: c, a, b

(I) c1ccc(Nc2ccc(OCCCN3CCN(c4ccncc4)CC3)cc2)cc1
(II) CCCCCC(=O)c1ccc(OCCCN2CCN(C(=O)[C@@H](NC(=O)OC(C)(C)C)C(C)C)CC2)cc1
(III) CCOC(=O)N1CCN(CCCOc2ccc(C(=O)c3cccc(C)c3)cc2)CC1
INPUT: Number of molecules to sort: 3. Sort criterion: Ki, ascending. Output spec: labels arranged per the requested ranking.
OUTPUT: III, I, II
